Values were extracted from patent US20090035322A1.

The reader will find reported Percent of Binding to Mutant Human CD20 values listed item by item below.
# measuredOn: T1, mutant human CD20 #2 (N163D) (human, UniProt P11836 1-297)
# T1 construct: Stably expressed on MG87 cells
# T1 sequence: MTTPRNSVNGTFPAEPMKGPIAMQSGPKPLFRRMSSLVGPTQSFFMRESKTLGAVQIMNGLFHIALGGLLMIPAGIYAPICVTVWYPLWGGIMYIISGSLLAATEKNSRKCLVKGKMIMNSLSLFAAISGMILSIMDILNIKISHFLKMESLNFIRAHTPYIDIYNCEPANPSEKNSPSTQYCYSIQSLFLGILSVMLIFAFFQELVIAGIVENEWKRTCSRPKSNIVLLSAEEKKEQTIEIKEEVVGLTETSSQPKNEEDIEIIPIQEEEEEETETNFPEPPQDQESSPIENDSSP
# experimentalDetails: FACS, mutant-hCD20 MG87 cells; 100%=best antibody
Respond with the bare value in %.

Q: Return reported Percent of Binding to Mutant Human CD20; argument: 6B9-4 (antibody, V domains shown, Fully human IgG, constant region not specified; also called 6B9-4N) VH: EEQLVESGGDLVQPGRSLRLSCAASGFTFHDYTMHWVRQAPGKGLEWVSGISWNSGSIGYADSVKGRFTISRDNAKNSLYLQMNSLRIEDTALYYCAKDPSYGSGSYYYYYGMDVWGQGTTVTVSS VL: EIVLTQSPATLSLSPGERATLSCRASQSVSSYLVWYQQRPGQAPRLLIYEASNRATGIPARFSGSGSGTDFTLTISSLESEDFAVYYCQQRSNWPLTFGGGTKVEIK
Ans: 3

Q: Please report the recorded Percent of Binding to Mutant Human CD20 for 6F6-1 (antibody, V domains shown, Fully human IgG, constant region not specified; also called 6F6-1N) VH: AVQLVESGGGLVQPGRSLRLSCAASGFTFRDYAMHWVRQGPGKGLEWVSGISWNTDYIGYADSVKGRFTISRDNAKNSLYLQMNSLRPEDTALYYCAKDARYGRDNYYGMDVWGQGTTVTVSS VL: EIVMTQSPATLSVSPGERATLSCRASQSVSHNLAWYQQKPGQAPRLLIYGAYTRATGIPDRFSGTGSGTEFTLTISSLQSEDFAVFYCQQYNNWPLTFGGGTKVEIK .
Ans: 74

Q: For the binder 9D4-7 (antibody, V domains shown, Fully human IgG, constant region not specified; also called 9D4-7N) VH: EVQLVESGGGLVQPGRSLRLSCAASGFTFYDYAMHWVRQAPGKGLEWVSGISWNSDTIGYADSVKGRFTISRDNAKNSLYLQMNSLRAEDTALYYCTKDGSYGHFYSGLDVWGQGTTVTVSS VL: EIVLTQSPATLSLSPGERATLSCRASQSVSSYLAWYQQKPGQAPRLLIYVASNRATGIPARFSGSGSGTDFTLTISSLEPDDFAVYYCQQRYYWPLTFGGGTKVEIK , what Percent of Binding to Mutant Human CD20 is on record?
Ans: 2
